Data credit: the supplement of paper PMC3334620

- testTarget: Cst6 (UniProt P40535)
- Sequence (P40535 whole entry): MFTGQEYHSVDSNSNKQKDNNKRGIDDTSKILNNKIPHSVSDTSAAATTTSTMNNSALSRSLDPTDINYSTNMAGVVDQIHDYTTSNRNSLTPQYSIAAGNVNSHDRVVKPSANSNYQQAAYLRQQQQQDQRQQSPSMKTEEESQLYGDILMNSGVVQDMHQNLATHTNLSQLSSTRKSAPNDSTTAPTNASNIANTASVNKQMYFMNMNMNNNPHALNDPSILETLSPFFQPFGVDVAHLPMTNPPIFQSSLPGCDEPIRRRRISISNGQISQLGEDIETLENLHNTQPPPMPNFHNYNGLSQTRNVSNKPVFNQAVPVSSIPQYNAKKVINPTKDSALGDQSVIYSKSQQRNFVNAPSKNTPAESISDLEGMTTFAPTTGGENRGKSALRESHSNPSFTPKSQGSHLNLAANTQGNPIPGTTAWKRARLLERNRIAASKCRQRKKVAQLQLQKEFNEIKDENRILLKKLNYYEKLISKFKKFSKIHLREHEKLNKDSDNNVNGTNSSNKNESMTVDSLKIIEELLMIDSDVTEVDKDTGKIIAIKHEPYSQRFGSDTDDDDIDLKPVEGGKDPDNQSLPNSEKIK
- experimentalDetails: PBM E-score (8-mer binding enrichment) (E-score (-0.5 to 0.5)); higher = stronger / more preferred TF binding
- assayContext: protein concentration: 200 nM; construct: GST-DNA-binding domain
Whole data set: some 33,000 sequences, median “E-score (-0.5 to 0.5)” near -0.016, cut for the highest 2% near 0.31. Many of the other results were omitted from the sample, so the highest values are more common in it than they were.
Each record gets a class by PBM E-score: bottom: < 0.002; middle: ≥ 0.002 and < 0.1; top: ≥ 0.1

Here's what some known entries look like.
CGCGCCGA ... top
CTGCGTCC ... bottom
CTGACGGC ... top
ATGACGGC ... top
CTGACGGA ... top

Prompt: Class label required: AGAGGTTC
Completion: bottom

Prompt: Band of TGCTAGCA ?
Completion: middle

Prompt: Which class does ACGACGGA fall in?
Completion: middle

Prompt: Please indicate the class for ATGTATGA based on its PBM E-score.
Completion: top

Prompt: Pick a category. Item: CTGCGTTA
Completion: bottom
